Some compounds, each annotated with its measured inhibition.
- target desc: Vascular endothelial growth factor receptor 3 (Homo sapiens) (UniProt P35916)
- Sequence (P35916 whole entry): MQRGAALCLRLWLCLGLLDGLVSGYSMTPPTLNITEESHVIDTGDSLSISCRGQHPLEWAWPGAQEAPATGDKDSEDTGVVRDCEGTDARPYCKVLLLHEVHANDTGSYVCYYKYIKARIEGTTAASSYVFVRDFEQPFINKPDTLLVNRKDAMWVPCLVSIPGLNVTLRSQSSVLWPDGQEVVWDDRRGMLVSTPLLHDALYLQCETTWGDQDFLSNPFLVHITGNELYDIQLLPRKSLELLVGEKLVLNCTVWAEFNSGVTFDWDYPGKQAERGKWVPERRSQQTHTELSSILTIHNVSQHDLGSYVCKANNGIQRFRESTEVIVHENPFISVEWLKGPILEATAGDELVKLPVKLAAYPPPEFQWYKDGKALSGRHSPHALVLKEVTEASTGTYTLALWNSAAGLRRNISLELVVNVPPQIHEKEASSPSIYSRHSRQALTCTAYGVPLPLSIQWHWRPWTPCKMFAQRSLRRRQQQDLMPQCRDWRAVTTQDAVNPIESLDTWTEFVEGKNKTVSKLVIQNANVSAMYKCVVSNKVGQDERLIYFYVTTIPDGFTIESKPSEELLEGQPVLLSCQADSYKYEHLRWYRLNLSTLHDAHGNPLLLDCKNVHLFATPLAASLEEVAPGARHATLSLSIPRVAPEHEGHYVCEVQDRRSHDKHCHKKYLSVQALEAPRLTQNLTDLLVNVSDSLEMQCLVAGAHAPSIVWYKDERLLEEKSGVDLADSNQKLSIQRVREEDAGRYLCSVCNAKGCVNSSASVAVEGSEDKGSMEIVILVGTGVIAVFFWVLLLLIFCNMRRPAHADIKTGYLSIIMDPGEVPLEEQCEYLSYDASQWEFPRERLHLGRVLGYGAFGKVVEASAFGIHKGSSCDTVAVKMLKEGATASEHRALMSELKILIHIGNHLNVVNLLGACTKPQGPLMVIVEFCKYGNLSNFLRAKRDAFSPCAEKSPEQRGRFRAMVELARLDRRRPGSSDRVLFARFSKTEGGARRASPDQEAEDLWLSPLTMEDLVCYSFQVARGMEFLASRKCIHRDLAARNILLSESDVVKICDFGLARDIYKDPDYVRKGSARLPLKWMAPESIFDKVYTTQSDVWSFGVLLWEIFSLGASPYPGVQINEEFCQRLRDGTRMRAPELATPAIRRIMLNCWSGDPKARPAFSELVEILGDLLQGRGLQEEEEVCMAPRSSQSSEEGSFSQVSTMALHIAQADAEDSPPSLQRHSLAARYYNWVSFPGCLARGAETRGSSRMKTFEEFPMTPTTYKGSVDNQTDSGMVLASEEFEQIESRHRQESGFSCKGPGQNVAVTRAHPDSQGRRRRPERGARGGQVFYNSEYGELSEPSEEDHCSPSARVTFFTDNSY
- condition summary: at 0.1 µM
- Description: GSK_PKIS: FLT4 mean inhibition at 0.1 uM [Nanosyn]

cpd smiles | inhibition (%)
CS(=O)(=O)CCNCc1ccc(-c2ccc3ncnc(Nc4ccc(OCc5ccccc5)c(Br)c4)c3c2)o1 | -7.55
Clc1ccc(CNc2nccc(-c3cnn4ncccc34)n2)cc1 | -1.51
CN(c1ccc(NC(=O)Nc2c(Cl)cccc2Cl)cc1)c1ccnc(Nc2cccc(CS(C)(=O)=O)c2)n1 | 23
Cc1ccc(C(=O)NC2CCC2)cc1-c1ccc(C(=O)NCC2CC2)cc1 | 1.24
COc1cc(N2CCN(C(C)C)CC2)ccc1Nc1nc(Nc2ccc(F)cc2C(=O)NC[C@@H](O)CO)c2cc[nH]c2n1 | -9.16
Fc1ccc(-c2nc3n(c2-c2ccncc2)CCS3)cc1 | -8.43
Cc1ccc(NC(=O)c2ccoc2)cc1-c1ccc(C(=O)NCC2CC2)cc1 | 0.17
O=C1Nc2ccc(I)cc2C1=Cc1cc(Br)c(O)c(Br)c1 | 0.19
C[C@@H](Oc1cc(-n2cnc3ccc(OC4CCN(C)CC4)cc32)sc1C(N)=O)c1ccccc1Cl | -3.01
